- Assayed target: h 5-HT4e Receptor (Homo sapiens, UniProt Q13639)
- Sequence (Q13639 1-378 isoform Q13639-5): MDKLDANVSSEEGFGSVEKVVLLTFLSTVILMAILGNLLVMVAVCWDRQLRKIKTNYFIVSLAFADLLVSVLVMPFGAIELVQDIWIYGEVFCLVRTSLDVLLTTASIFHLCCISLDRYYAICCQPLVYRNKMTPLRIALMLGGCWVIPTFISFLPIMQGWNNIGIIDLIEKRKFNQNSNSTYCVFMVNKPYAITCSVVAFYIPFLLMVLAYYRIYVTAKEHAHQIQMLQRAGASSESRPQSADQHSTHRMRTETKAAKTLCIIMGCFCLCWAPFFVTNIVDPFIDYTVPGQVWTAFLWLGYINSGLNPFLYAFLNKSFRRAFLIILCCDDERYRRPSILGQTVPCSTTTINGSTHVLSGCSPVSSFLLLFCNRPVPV
pKi: −log10 of the molar value. Structures can show the parent of a compound that is named as a salt.
Quick rule: pKi of at least 7 means yes, below that means no.

>>> classification("CCC1CCN(CCCNC(=O)c2c(O)c3ccsc3n(CC)c2=O)CC1 [Compound 5, hydrochloride salt]")
"yes"
>>> classification("CC(C)n1c(=O)c(C(=O)NCCCN2CCCC2)c(O)c2ccsc21 [Compound 6, hydrochloride salt]")
"yes"
>>> classification("CC(C)n1c(=O)c(C(=O)NCCCN2CCC(F)(F)CC2)c(O)c2ccsc21 [Compound 11, hydrochloride salt]")
"no"
>>> classification("CCn1c(=O)c(C(=O)NCCCN2CCCCC2)c(O)c2ccsc21 [Compound 3, hydrochloride salt]")
"yes"
>>> classification("CC(C)n1c(=O)c(C(=O)NCCCN2[C@H](C)CCC[C@@H]2C)c(O)c2ccsc21 [Compound 13, hydrochloride salt]")
"no"

###

Counter-ions that a name gives are not always drawn.
Ki values recorded for h 5-HT4e Receptor (Homo sapiens)
Quantity name: Ki

>>> data_value("COC(=O)C1CCN(CCCNC(=O)c2c(O)c3ccsc3n(C(C)C)c2=O)CC1 [Compound 10, hydrochloride salt]")
"40 nM"
>>> data_value("CC(C)n1c(=O)c(C(=O)NCCCN2CCC(C(F)(F)F)CC2)c(O)c2ccsc21 [Compound 9, hydrochloride salt]")
"50 nM"
>>> data_value("Cc1sc2c(c1C)c(O)c(C(=O)NCCCN1CCCCC1)c(=O)n2C(C)C [Compound 14, hydrochloride salt]")
"140 nM"
>>> data_value("CC(C)n1c(=O)c(C(=O)NCCCN2CCC(C)(C)CC2)c(O)c2ccsc21 [Compound 12, hydrochloride salt]")
"200 nM"
>>> data_value("CCn1c(=O)c(C(=O)NCCCN2CCC(C)CC2)c(O)c2ccsc21 [Compound 4, hydrochloride salt]")
"20 nM"
>>> data_value("CCCn1c(=O)c(C(=O)NCCCN2CCC(C)CC2)c(O)c2ccsc21 [Compound 2, hydrochloride salt]")
"160 nM"
>>> data_value("CC(C)Cn1c(=O)c(C(=O)NCCCN2CCCCC2)c(O)c2ccsc21 [Compound 1, hydrochloride salt]")
"120 nM"
